systemName: Voltage-gated inwardly rectifying potassium channel KCNH2 (Homo sapiens)
Sequence (Q12809 whole entry): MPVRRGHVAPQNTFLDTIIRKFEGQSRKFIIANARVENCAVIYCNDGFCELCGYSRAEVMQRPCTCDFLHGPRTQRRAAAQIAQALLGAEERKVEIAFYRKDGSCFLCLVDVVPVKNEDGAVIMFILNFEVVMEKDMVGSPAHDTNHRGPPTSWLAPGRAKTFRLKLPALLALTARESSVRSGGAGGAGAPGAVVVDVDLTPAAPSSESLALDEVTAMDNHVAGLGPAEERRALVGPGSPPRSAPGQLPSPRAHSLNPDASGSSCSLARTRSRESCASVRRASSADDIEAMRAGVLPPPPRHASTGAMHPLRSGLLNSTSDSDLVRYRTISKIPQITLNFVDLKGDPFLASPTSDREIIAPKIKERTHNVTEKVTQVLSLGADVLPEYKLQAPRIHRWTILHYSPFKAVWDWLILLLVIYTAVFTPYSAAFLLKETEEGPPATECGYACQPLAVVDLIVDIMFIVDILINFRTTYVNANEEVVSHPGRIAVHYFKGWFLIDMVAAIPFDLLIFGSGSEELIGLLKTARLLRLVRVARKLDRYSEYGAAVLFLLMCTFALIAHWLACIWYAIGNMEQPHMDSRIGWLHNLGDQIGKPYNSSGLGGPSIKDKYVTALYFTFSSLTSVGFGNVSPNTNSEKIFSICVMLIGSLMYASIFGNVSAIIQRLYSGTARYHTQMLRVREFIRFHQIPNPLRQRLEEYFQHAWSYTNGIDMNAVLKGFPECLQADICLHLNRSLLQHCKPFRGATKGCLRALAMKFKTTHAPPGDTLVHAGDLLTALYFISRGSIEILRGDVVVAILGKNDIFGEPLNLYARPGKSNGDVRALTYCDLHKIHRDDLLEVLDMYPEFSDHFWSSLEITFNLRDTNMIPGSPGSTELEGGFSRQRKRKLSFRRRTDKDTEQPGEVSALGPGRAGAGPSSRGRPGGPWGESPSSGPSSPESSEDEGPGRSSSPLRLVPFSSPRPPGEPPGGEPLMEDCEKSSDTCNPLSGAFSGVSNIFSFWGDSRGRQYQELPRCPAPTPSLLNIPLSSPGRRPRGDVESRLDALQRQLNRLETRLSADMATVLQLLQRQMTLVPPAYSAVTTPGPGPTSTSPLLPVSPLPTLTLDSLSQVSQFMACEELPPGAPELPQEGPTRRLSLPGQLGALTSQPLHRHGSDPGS
experimentalProtocol: Inhibition of human ERG expressed in HEK293 cells assessed as reduction in channel tail current by patch clamp method
measuredMetric: IC50 (µM)

compound="CC(C(=O)O)c1ccc(CN2CCC(COC(=O)c3c4n(c5ccccc35)CCCO4)CC2)cc1 (configuration not stated)" systemname="Voltage-gated inwardly rectifying potassium channel KCNH2 (Homo sapiens)" readingunit=µM experimentalresult=25
compound="O=C(OCC1CCN(CC(O)CO)CC1)c1c2n(c3ccccc13)CCCO2 (configuration not stated)" systemname="Voltage-gated inwardly rectifying potassium channel KCNH2 (Homo sapiens)" readingunit=µM experimentalresult=81

----------
systemName: 5-hydroxytryptamine receptor 4 (Homo sapiens)
Sequence (Q13639 whole entry): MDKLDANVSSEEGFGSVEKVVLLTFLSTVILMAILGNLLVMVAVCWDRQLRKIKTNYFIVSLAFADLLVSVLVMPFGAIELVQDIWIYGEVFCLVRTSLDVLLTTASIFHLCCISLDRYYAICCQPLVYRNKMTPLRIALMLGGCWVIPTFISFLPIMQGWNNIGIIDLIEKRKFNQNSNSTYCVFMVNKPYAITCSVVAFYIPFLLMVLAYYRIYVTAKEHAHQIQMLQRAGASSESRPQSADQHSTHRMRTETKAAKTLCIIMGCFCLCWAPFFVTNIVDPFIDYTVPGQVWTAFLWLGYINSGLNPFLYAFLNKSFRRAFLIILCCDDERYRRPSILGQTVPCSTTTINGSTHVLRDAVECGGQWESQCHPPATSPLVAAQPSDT
experimentalProtocol: Antagonist activity against human 5HT4b receptor expressed in HEK293 cells assessed as reduction in 5-HT-stimulated adenylyl cyclase activity
Type: functional, cell-based
measuredMetric: pKb

compound="O=C(OCC1CCN(CC2C3CC4C2C4C3C(=O)O)CC1)c1c2n(c3ccccc13)CCCO2 (stereo not drawn)" experimentalresult=8.4
compound=Cn1cc(C(=O)OCC2CCN(CCNS(C)(=O)=O)CC2)c2ccccc21 experimentalresult=10.1
compound=O=C(NCC1CCN(Cc2ccc(NS(=O)(=O)C3CCCCC3)cc2)CC1)c1cccc2c1OCCO2 experimentalresult=7.6
compound=CC(C)CS(=O)(=O)Nc1ccc(CN2CCC(CNC(=O)c3c4n(c5ccccc35)CCCO4)CC2)cc1 experimentalresult=9.7
compound=CS(=O)(=O)Nc1ccc(CN2CCC(CNC(=O)c3c4n(c5ccccc35)CCCO4)CC2)cc1 experimentalresult=8.3
compound="O=C(OCC1CCN(CC(O)CO)CC1)c1c2n(c3ccccc13)CCCO2 (stereo not drawn)" experimentalresult=9.1
compound=CC(C)CS(=O)(=O)Nc1ccc(CN2CCC(CNC(=O)c3cccc4c3OCCO4)CC2)cc1 experimentalresult=8
compound="CCCCN1CCC(CNC(=O)c2c3n(c4ccccc24)CCCO3)CC1 [PIBOSEROD]" experimentalresult=10.5
compound=O=C(NCC1CCN(Cc2ccc(NS(=O)(=O)C3CCCCC3)cc2)CC1)c1c2n(c3ccccc13)CCCO2 experimentalresult=8
compound=CCCCS(=O)(=O)Nc1ccc(CN2CCC(CNC(=O)c3c4n(c5ccccc35)CCCO4)CC2)cc1 experimentalresult=9.7
compound="CC(C(=O)O)c1ccc(CN2CCC(COC(=O)c3c4n(c5ccccc35)CCCO4)CC2)cc1 (stereo not drawn)" experimentalresult=8.8
compound=CS(=O)(=O)Nc1ccc(CN2CCC(CNC(=O)c3cccc4c3OCCO4)CC2)cc1 experimentalresult=8.3
compound=CCCCS(=O)(=O)Nc1ccc(CN2CCC(CNC(=O)c3cccc4c3OCCO4)CC2)cc1 experimentalresult=8

----------
systemName: 5-hydroxytryptamine receptor 4 (Homo sapiens)
experimentalProtocol: Displacement of [3H]GR113808 from human 5HT4b receptor expressed in HEK293 cell membranes
Please assign n whenever Ki is at or above 1 nM, and y whenever it is below.

molecule=CC(C)CS(=O)(=O)Nc1ccc(CN2CCC(CNC(=O)c3cccc4c3OCCO4)CC2)cc1 systemname="5-hydroxytryptamine receptor 4 (Homo sapiens)" label=y
molecule=O=C(NCC1CCN(Cc2ccc(NS(=O)(=O)C3CCCCC3)cc2)CC1)c1cccc2c1OCCO2 systemname="5-hydroxytryptamine receptor 4 (Homo sapiens)" label=n
molecule="O=C(OCC1CCN(CC2C3CC4C2C4C3C(=O)O)CC1)c1c2n(c3ccccc13)CCCO2 (stereo unspecified)" systemname="5-hydroxytryptamine receptor 4 (Homo sapiens)" label=n
molecule=O=C(NCC1CCN(Cc2ccc(NS(=O)(=O)C3CCCCC3)cc2)CC1)c1c[nH]c2ccccc12 systemname="5-hydroxytryptamine receptor 4 (Homo sapiens)" label=n
molecule=O=C(NCC1CCN(Cc2ccc(NS(=O)(=O)C3CCCCC3)cc2)CC1)c1c2n(c3ccccc13)CCCO2 systemname="5-hydroxytryptamine receptor 4 (Homo sapiens)" label=y
molecule="O=C(OCC1CCN(CC(O)CO)CC1)c1c2n(c3ccccc13)CCCO2 (stereo unspecified)" systemname="5-hydroxytryptamine receptor 4 (Homo sapiens)" label=y
